- Test system: Pseudomonas aeruginosa
- method: Antibacterial activity against Pseudomonas aeruginosa ATCC 10145 by microdilution method
- Type: functional

# chemical.structure, MIC
rows = [
    ("O=c1cc(CCl)oc(CN2CCN(c3ccc(C(F)(F)F)cc3)CC2)c1O", "16 µg/mL"),
    ("COc1cccc(N2CCN(Cc3oc(CCl)cc(=O)c3O)CC2)c1", "32 µg/mL"),
]

----------
- Tested on: Human respirovirus 3
- method: Antiviral activity against Human parainfluenza virus 3 infected African green monkey Vero cells assessed as concentration required to cause maximum inhibition of virus-induced cytopathic effect
- Type: functional
Items are presented alongside their recorded Activity.
metric.name: Activity (µg/mL)

# chemical.structure, endpoint.value
records = [
    ("O=c1cc(CCl)oc(CN2CCN(c3ccc(Cl)cc3)CC2)c1O", 0.4),
    ("O=c1cc(CCl)oc(CN2CCN(c3ccccc3Cl)CC2)c1O", 0.4),
    ("COc1cccc(N2CCN(Cc3oc(CCl)cc(=O)c3O)CC2)c1", 0.4),
]
